experiment: yeast display, Sf9 membrane polyspecificity reagent, FACS + sequencing; frameworks hold sequencing errors

{"residue-codes": "QVQLVESGGGLVQAGGSLRLSCAASGFIFYDYAMGWYRQAPGKERELVAGITDSGGSTSYADSVKGRFTISRDNAKNTVYLHMNSLKPEDTAVYYCAADNYVRAGINYDYWGQGTQVTVSS", "polyreactivity (PSR sort gate)": "low polyreactivity"}
{"residue-codes": "QVQLVESGGGLVQAGGSLRLSCAASGRTFLVYAMGWYRQAPGKERELVAAITWTGGTTYYADSVKGRFTISRDNAKNTVYLQMNSLKPEDTAVYYCNKRGSAWLVEEVDYWGQGTQVTVSS", "polyreactivity (PSR sort gate)": "low polyreactivity"}

###

test: yeast display, Sf9 membrane polyspecificity reagent, FACS + sequencing; frameworks hold sequencing errors
parameter-measured: polyreactivity (PSR sort gate)

These recorded examples may help you get a feel for the data.
{"residue-codes": "QVQLVESGGGLVQAGGSLLLICSASGSTFVRHAMGWYRHAPGKESELDAAISTRGGSTSYADSVKGRFTISRDNSKNSVYLQMKSLKQEDTAVYYCAKVLAYSQGIRHGYWGQGTQVTVSS", "polyreactivity (PSR sort gate)": "low polyreactivity"}
{"residue-codes": "QVQLVESGGGLVQAGGSLRLSCAASGRIFAINTMGWYRQAPGKERELVAAINNGGSTNYADSVKGRFTISRDNAKNTVYLQMNSLKPEDTAVYYCAAEGLPYVRVFDFVSRYDYWGQGTQVTVSS", "polyreactivity (PSR sort gate)": "low polyreactivity"}
{"residue-codes": "QVQLVESGGGLVQAGGSLRLSCAASGSTFSFYAMGWYRQAPGKERELVAAITWTTGSTYADSVKGRFTISRDNAKNTVYLQMNSLKPEDTAVYYCAAKKFRRSRDSYYWGPGTQVTVSS", "polyreactivity (PSR sort gate)": "high polyreactivity"}
{"residue-codes": "QVQLVESGGGLVQAGGSLRLSCAASGSTFVINAMGWYRQAPGKERELVARISSSGGRTYYADSVKGRFTISRDNAKNTVYLQMNSLKPEDTAVYYCAKRGYLFLRGSVRVGYNYWGHGTQVTVSS", "polyreactivity (PSR sort gate)": "low polyreactivity"}
{"residue-codes": "QVQLVESGGGLVQAGGSLRLICAASGRTFSYYAIAWYRPAPGKERELVAAINWSGTRTYYADSVTGRCTISRDNAKNTVYLQMNSLNPEDTAVYYCARRWVGYDYWGQGTQVTVSS", "polyreactivity (PSR sort gate)": "high polyreactivity"}

Here's the next entry for you.
Query: polyreactivity (PSR sort gate); subject: QVQLVESGGGLVQAGGSLRLSCAATGSIFYFNAMGWYRKAPGKERELVADISGSGGSTYYADSVKGRFTISRDNAKNTVYLQMNSLKPEDTAVYYCAARLYLHSWWYYAYDYWGQGTQVTVSS
high polyreactivity

###

assay: yeast display, Sf9 membrane polyspecificity reagent, FACS + sequencing; frameworks hold sequencing errors
parameter-measured: polyreactivity (PSR sort gate)

Recorded results for 5 sequences are shown here.
{"residue-codes": "QVQLVESGGGLVQAGGSLRLSCAASGRIFRTYAMGWYRQAPGKERELVDAISYSGGSTFYADSVKRRFTISRDNAKNTVYLQMNSLKPEYTAVYYCAADSRAKRYYWGQGTQVTVSS", "parameter-measured": "polyreactivity (PSR sort gate)", "result": "high polyreactivity"}
{"residue-codes": "QVQLVESGGGLVQAGGSLRLSCAASGRIFGWYAMGWYRQAPGKERELVAAISRGGGSTYYADSVKGRFTISRDNAKNTVYLQMNSLKPEDTAVYYCARDGGSLSHYHVGTGKFGYWGQGTQVTVSS", "parameter-measured": "polyreactivity (PSR sort gate)", "result": "low polyreactivity"}
{"residue-codes": "QVQLVESGGGLVQAGGSLGLSCAASGNMFGRYAMGWYRQAPGKEREYVATITYSGGSTYYADSVKGPFTISRDNAKNTVYLQMNSLKQEDTAVYYCAARVGRPTLVAAKYDYWGQGTQVTVSS", "parameter-measured": "polyreactivity (PSR sort gate)", "result": "high polyreactivity"}
{"residue-codes": "QVQLVESGGGLVQAGGSLRLSCDASGSTFRSYAMGWYRQAHGKERELVASISGRGGSTYYADSVKGRFTISRDNAKNTVYLQMNSLKPEDTAVYYCAKRYRVSYYPYADPYGYWGQGTQVTVSS", "parameter-measured": "polyreactivity (PSR sort gate)", "result": "low polyreactivity"}
{"residue-codes": "QVQLVESVGGLVQAGGSLRLSCAASGIIFARYAMGWYRQAPGKERELVASISWSTGNTYYADSVKGRFTISRDNAKNTVYLQMNSLKPEDTAVYYCAATYRRKYWTMDYWGQGTQVTVSS", "parameter-measured": "polyreactivity (PSR sort gate)", "result": "high polyreactivity"}

I'd like to know its polyreactivity (PSR sort gate). The sequence in question is QVQLVESGGGLVQAGGSLRLSCAASASIFNYYAMGRYRQAPGKERELVAAITSGGSTYYADSVKGRFSISRDNAKNTVYLQMNSVKPEDTAVYYCNKAFPYIYDYWGQGTQVTVSS
low polyreactivity

Lookup QVQLVESVGGLVQAGGSLRLSCDASGRIFRRYAMGWYRQAPGKERELVAAISSSGDSTYYADSVKGRFTISRDNAKNTVYLQMNSLKPEDTAVYYCAAVTRRYVLSTFYYWGQGTQVTVSS
high polyreactivity

Origin of measurements: the nanobody polyreactivity screen of Harvey et al. (2022)
